- system: UniProtKB Q9P1W9
- Sequence (Q9P1W9 whole entry): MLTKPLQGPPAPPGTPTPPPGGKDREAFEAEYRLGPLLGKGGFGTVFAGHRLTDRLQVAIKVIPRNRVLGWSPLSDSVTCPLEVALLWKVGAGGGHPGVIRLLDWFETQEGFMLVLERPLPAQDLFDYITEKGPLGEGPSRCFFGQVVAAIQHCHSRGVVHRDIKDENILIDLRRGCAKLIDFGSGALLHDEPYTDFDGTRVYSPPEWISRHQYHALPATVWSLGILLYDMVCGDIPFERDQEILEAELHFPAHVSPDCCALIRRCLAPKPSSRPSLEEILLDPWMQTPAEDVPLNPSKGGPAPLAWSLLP
- procedure-details: Pim2 AlphaScreen assay (high ATP)
reported-metric: pIC50
Please report pIC50 as the negative decimal logarithm of the molar concentration, giving only the number.

Item under review: "CSc1cc(F)c(-c2nc(C(=O)Nc3cnccc3[C@H]3C[C@@H](N)[C@](C)(O)[C@@H](C)C3)ccc2F)c(F)c1" . Reported pIC50?
8.16

Item under review: "C[C@H]1C[C@@H](c2ccncc2NC(=O)c2ccc(F)c(-c3c(F)cc(C4COC4)cc3F)n2)C[C@@H](N)[C@]1(C)O" . Reported pIC50?
8.24

Item under review: "C[C@H]1C[C@@H](c2ccncc2NC(=O)c2nc(-c3nc(F)ccc3F)ccc2N)C[C@@H](O)[C@]1(C)O" . Reported pIC50?
5.67

Item under review: "C[C@H]1C[C@@H](c2ccncc2NC(=O)c2ccc(F)c(-c3c(F)cc(OCC4CCOCC4)cc3F)n2)C[C@@H](N)[C@]1(C)O" . Reported pIC50?
8.66

Item under review: "C[C@H]1C[C@@H](c2ccncc2NC(=O)c2ccc(F)c(-c3c(F)cccc3F)n2)C[C@@H](N)[C@]1(C)O" . Reported pIC50?
8.24

Item under review: "C[C@@H]1C[C@H](c2ccncc2NC(=O)c2ccc(F)c(-c3c(F)cc(C4(O)CCCC4)cc3F)n2)C[C@H](O)[C@@]1(C)O" . Reported pIC50?
6.21

Item under review: "C[C@H]1C[C@@H](c2ccncc2NC(=O)c2ccc(F)c(-c3c(F)cc(C4(O)COC4)cc3F)n2)C[C@@H](O)[C@]1(C)O" . Reported pIC50?
6.58

Item under review: "Cc1cc(F)c(-c2nc(C(=O)Nc3cnccc3[C@H]3C[C@@H](N)[C@](C)(O)[C@@H](C)C3)ccc2F)c(F)c1" . Reported pIC50?
8.36

Item under review: "CC(=O)c1ccc(F)c(-c2ccc(N)c(C(=O)Nc3cnccc3[C@H]3C[C@@H](O)[C@](C)(O)[C@@H](C)C3)n2)n1" . Reported pIC50?
5.58

Item under review: "C[C@H]1C[C@@H](c2ccncc2NC(=O)c2ccc(F)c(-c3c(F)ccc(OCCO)c3F)n2)C[C@@H](N)[C@]1(C)O" . Reported pIC50?
7.98

Item under review: "C[C@H]1C[C@@H](c2ccncc2NC(=O)c2ccc(F)c(-c3c(F)cc(C4CC4)cc3F)n2)C[C@@H](N)[C@]1(C)O" . Reported pIC50?
8.60

Item under review: "CCN1CCC(c2cc(F)c(-c3nc(C(=O)Nc4cnccc4[C@H]4C[C@@H](O)[C@](C)(O)[C@@H](C)C4)ccc3F)c(F)c2)CC1" . Reported pIC50?
6.98

Item under review: "C[C@H]1C[C@@H](c2ccncc2NC(=O)c2ccc(F)c(-c3c(F)cc(C4(O)CCCC4)cc3F)n2)C[C@@H](N)[C@]1(C)O" . Reported pIC50?
8.57

Item under review: "C[C@@H]1C[C@H](c2ccncc2NC(=O)c2ccc(F)c(-c3c(F)cc(OC4CCOCC4)cc3F)n2)C[C@H](O)[C@@]1(C)O" . Reported pIC50?
5.06

Item under review: "C[C@H]1C[C@@H](c2ccncc2NC(=O)c2ccc(F)c(-c3c(F)cc(C4=CCCC4)cc3F)n2)C[C@@H](N)[C@]1(C)O" . Reported pIC50?
8.35

Item under review: "C[C@@H]1C[C@H](c2ccncc2NC(=O)c2ccc(F)c(-c3c(F)cc(C(C)(C)O)cc3F)n2)C[C@H](O)[C@@]1(C)O" . Reported pIC50?
5.20

Item under review: "C[C@H]1C[C@@H](c2ccncc2NC(=O)c2ccc(F)c(-c3c(F)cc(OCC(=O)N(C)C)cc3F)n2)C[C@@H](N)[C@]1(C)O" . Reported pIC50?
8.07

Item under review: "COc1cc(F)c(-c2nc(C(=O)Nc3cnccc3[C@H]3C[C@@H](N)[C@](C)(O)[C@@H](C)C3)ccc2F)c(F)c1" . Reported pIC50?
8.22

Item under review: "C[C@H]1C[C@@H](c2ccncc2NC(=O)c2nc(-c3nc(F)c(F)cc3F)ccc2N)C[C@@H](O)[C@]1(C)O" . Reported pIC50?
5.64

Item under review: "C[C@H]1C[C@@H](c2ccncc2NC(=O)c2nc(-c3c(F)cc(C(C)(C)O)cc3F)ccc2N)C[C@@H](O)[C@]1(C)O" . Reported pIC50?
7.66
